In this section, each of the molecules is paired with its reported selectivity ratio.
- TEST SUMMARY: Selectivity index, ratio of CC50 for cytotoxicity against human MT4 cells to EC50 for antiviral activity against wild type HIV1 IIIB infected in human MT4 cells
- Format: toxicity, cell-based
- RUN CONDITIONS: read-out: Ratio CC50/EC50
Give only the figure.

I have this molecule here, "COc1cc(OC)cc(Sc2c(C3CC3)c(=O)[nH]c(=O)n2COCc2ccccc2)c1" , and I need its recorded selectivity ratio.
38

Try this molecule too: "O=c1[nH]c(=O)n(COCc2ccccc2)c(Sc2cc(Cl)ccc2Cl)c1C1CC1"
1140

Try this molecule too: "Cc1ccc(Sc2c(C3CC3)c(=O)[nH]c(=O)n2COCc2ccccc2)c(C)c1"
7

Try this molecule too: "O=c1[nH]c(=O)n(COCc2ccccc2)c(Sc2ccc(Cl)cc2)c1C1CC1"
7

Try this molecule too: "O=c1[nH]c(=O)n(COCc2ccccc2)c(Sc2cccc(Br)c2)c1C1CC1"
239

Try this molecule too: "O=c1[nH]c(=O)n(COCc2ccccc2)c(Sc2cccc(Cl)c2Cl)c1C1CC1"
34

Try this molecule too: "O=c1[nH]c(=O)n(COCc2ccccc2)c(Sc2ccncc2)c1C1CC1"
8

Try this molecule too: "Cc1ccc(C)c(Sc2c(C3CC3)c(=O)[nH]c(=O)n2COCc2ccccc2)c1"
1050

====

In this section, each of the molecules is paired with its reported CC50.
- TEST SUMMARY: Cytotoxicity against human MT4 cells assessed as reduction in cell viability
- Type: toxicity, cell-based
Form entry: value (µM) — number only.

Sample records with CC50:
- ENTRY SMILES: "O=c1[nH]c(=O)n(COCc2ccccc2)c(Sc2cccc(Br)c2)c1C1CC1"
  CC50 [µM]: 26.5
- ENTRY SMILES: "O=c1[nH]c(=O)n(COCc2ccccc2)c(Sc2ccc(F)cc2)c1C1CC1"
  CC50 [µM]: 38.8
- ENTRY SMILES: "Cc1cccc(C)c1Sc1c(C2CC2)c(=O)[nH]c(=O)n1COCc1ccccc1"
  CC50 [µM]: 30.3

// moving on: another record for CC50
I have this molecule here, "O=c1[nH]c(=O)n(COCc2ccccc2)c(Sc2cccc3ccccc23)c1C1CC1" , and I need its recorded CC50.
30.7

====

- System: Human immunodeficiency virus 1
- TEST SUMMARY: Antiviral activity against HIV1 harboring L100I mutant infected in human MT4 cells assessed as protection against virus-induced cytopathicity
- Assay type: functional, organism-based
- RUN CONDITIONS: Human immunodeficiency virus 1, MT4
In this section, each of the molecules is paired with its reported log10 EC50.
Values below are the log10 of the recorded EC50, with nM as the unit.

I have this molecule here, "O=c1[nH]c(=O)n(COCc2ccccc2)c(Sc2cc(Cl)cc(Cl)c2)c1C1CC1" , and I need its recorded log10 EC50.
2.60

Try this molecule too: "O=c1[nH]c(=O)n(COCc2ccccc2)c(Sc2ccccc2Cl)c1C1CC1"
2.80

====

- TEST SUMMARY: Cytotoxicity against human MT4 cells assessed as reduction in cell viability
- Type: toxicity, cell-based
QUANTITY KIND: CC50 (µM)
Form entry: value (µM) — number only.

Sample records with CC50:
- ENTRY SMILES: "Cc1cccc(Sc2c(C3CC3)c(=O)[nH]c(=O)n2COCc2ccccc2)c1"
  UNIT ABBREVIATION: "µM"
  CC50: 32.5
- ENTRY SMILES: "O=c1[nH]c(=O)n(COCc2ccccc2)c(Sc2ccc(Cl)cc2Cl)c1C1CC1"
  UNIT ABBREVIATION: "µM"
  CC50: 34
- ENTRY SMILES: "Cc1ccc(Sc2c(C3CC3)c(=O)[nH]c(=O)n2COCc2ccccc2)cc1"
  UNIT ABBREVIATION: "µM"
  CC50: 31.8

I have this compound here, "Cc1cc(C)cc(Sc2c(C3CC3)c(=O)[nH]c(=O)n2COCc2ccccc2)c1" , and I need its recorded CC50.
34

Try this compound too: "O=c1[nH]c(=O)n(COCc2ccccc2)c(Sc2ccc(Cl)cc2)c1C1CC1"
30.2

Try this compound too: "O=c1[nH]c(=O)n(COCc2ccccc2)c(Sc2c(Cl)cccc2Cl)c1C1CC1"
22.9
